TESTED_ON: C-C chemokine receptor type 3 (Homo sapiens, UniProt P51677)
Sequence (P51677 whole entry): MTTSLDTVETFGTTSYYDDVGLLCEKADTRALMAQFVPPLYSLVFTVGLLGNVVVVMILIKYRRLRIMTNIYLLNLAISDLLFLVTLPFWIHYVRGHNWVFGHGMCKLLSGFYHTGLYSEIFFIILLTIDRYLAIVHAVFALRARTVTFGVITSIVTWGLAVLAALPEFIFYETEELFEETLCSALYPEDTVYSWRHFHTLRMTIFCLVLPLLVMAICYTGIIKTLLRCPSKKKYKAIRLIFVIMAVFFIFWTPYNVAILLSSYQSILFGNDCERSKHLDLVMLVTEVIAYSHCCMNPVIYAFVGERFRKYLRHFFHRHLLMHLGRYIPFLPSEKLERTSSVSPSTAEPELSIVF
TEST_DETAILS: Antagonist activity against C-C chemokine receptor type 3
ASSAY_ENDPOINT: IC50 (nM)
Value expressed in nM; do not type the unit.

Check out these entries, answers already filled in.
- CCOC(=O)[C@H](C)NC(=O)[C@H](Cc1ccc([N+](=O)[O-])cc1)NC(=O)c1cccc2ccccc12: 383
- Cc1ccc(C(=O)N[C@@H](Cc2ccc(Cl)cc2)C(=O)N[C@@H](C)C(=O)Nc2ccc(Cl)cc2)c(C)c1: 45
- CCOC(=O)[C@@H](C)NC(=O)[C@H](Cc1ccc([N+](=O)[O-])cc1)NC(=O)c1cccc2ccccc12: 3
- COc1ccc(NC(=O)[C@H](C)NC(=O)[C@H](Cc2cscn2)NC(=O)c2cccc3ccccc23)cc1: 500
- O=C(N[C@@H](Cc1ccc([N+](=O)[O-])cc1)c1nc(C(=O)N2CCc3ccccc3C2)cs1)c1cccc2ccccc12: 12500

Inquiry: For O=C(N[C@@H](Cc1ccc([N+](=O)[O-])cc1)C(=O)N[C@H](C(=O)Nc1ccccc1)c1ccccc1)c1cccc2ccccc12 , what is its reported IC50?
Reply text: 116

Inquiry: # input compound: CCOC(=O)C1COC([C@H](Cc2ccc([N+](=O)[O-])cc2)NC(=O)c2cccc3ccccc23)=N1 (stereo partly drawn) ; wanted: its IC50
Reply text: 213

Inquiry: Query (compound): COc1ccc(C[C@H](NC(=O)c2cccc3ccccc23)C(=O)N[C@@H](C)C(=O)Nc2ccccc2OC)cc1 ; field requested: IC50
Reply text: 15

Inquiry: Form field: reported IC50 of COc1ccc(NC(=O)[C@H](C)NC(=O)[C@H](CC2CCCCC2)NC(=O)c2cccc3ccccc23)cc1
Reply text: 700

Inquiry: Find the recorded IC50 belonging to C[C@H](NC(=O)[C@H](Cc1ccc(Cl)cc1)NC(=O)c1cccc2ccccc12)C(=O)Nc1ccccc1 and report it.
Reply text: 5

Inquiry: Entry C[C@H](NC(=O)[C@H](Cc1ccc([N+](=O)[O-])cc1)NC(=O)c1cccc2ccccc12)C(=O)N(C)c1ccccc1 has what IC50?
Reply text: 600

Inquiry: Given the entry O=C(N[C@@H](Cc1ccc([N+](=O)[O-])cc1)C1=NCCO1)c1cccc2ccccc12 , report its measured IC50.
Reply text: 563

###

TESTED_ON: C-C chemokine receptor type 3 (Homo sapiens)
TEST_DETAILS: Antagonist activity against C-C chemokine receptor type 3
pIC50: −log10 of the molar value.
Classification field: 1 = pIC50 at or over 6; -1 = pIC50 under 6.

- O=C(N[C@@H](Cc1ccc([N+](=O)[O-])cc1)c1ncco1)c1cccc2ccccc12 (racemic): -1
- CCn1ccnc1[C@H](Cc1ccc([N+](=O)[O-])cc1)NC(=O)c1cccc2ccccc12 (racemic; form 3): -1

Inquiry: Determine whether measured pIC50 meets or exceeds 6 for O=C(CNC(=O)[C@H](Cc1ccc([N+](=O)[O-])cc1)NC(=O)c1cccc2ccccc12)Nc1ccccc1
Reply text: 1

Inquiry: Decide: pIC50 of O=C(Nc1ccccc1)c1csc([C@H](Cc2ccc([N+](=O)[O-])cc2)NC(=O)c2cccc3ccccc23)n1 >= 6?
Reply text: -1

Inquiry: Assess whether reported pIC50 for COc1ccc(NC(=O)[C@H](C)NC(=O)[C@H](Cc2ccc(C#N)cc2)NC(=O)c2cccc3ccccc23)cc1 sits at 6 or higher.
Reply text: 1

Inquiry: Could you verify whether the entry COc1ccccc1NC(=O)[C@H](C)NC(=O)[C@H](Cc1ccc(C#N)cc1)NC(=O)c1cccc2ccccc12 shows pIC50 of no less than 6?
Reply text: 1

Inquiry: hey, is pIC50 for this one >= 6? CCNC(=O)c1csc([C@H](Cc2ccc([N+](=O)[O-])cc2)NC(=O)c2cccc3ccccc23)n1
Reply text: -1

Inquiry: Confirm if pIC50 reported for the compound COc1ccc(NC(=O)[C@H](C)NC(=O)[C@H](Cc2ccncc2)NC(=O)c2cccc3ccccc23)cc1 is 6 or above.
Reply text: -1

Inquiry: API: above_or_equal(metric=pIC50, cutoff=6) for item COc1ccc(C[C@H](NC(=O)c2cccc3ccccc23)C(=O)N[C@@H](C)C(=O)Nc2ccc(C#N)cc2)cc1
Reply text: 1

Inquiry: Is reported pIC50 greater than or equal to 6 here: COc1ccc(NC(=O)[C@H](C)NC(=O)[C@H](Cc2ccc(Cl)cc2)NC(=O)c2cccc3ccccc23)cc1
Reply text: 1

Inquiry: Given C[C@@H](NC(=O)[C@H](Cc1ccc([N+](=O)[O-])cc1)NC(=O)c1cccc2ccccc12)C(=O)OC(C)(C)C , state whether its pIC50 is at least 6.
Reply text: 1

Inquiry: Evaluate O=C(N[C@@H](Cc1ccc([N+](=O)[O-])cc1)c1nnco1)c1cccc2ccccc12 (racemic) : pIC50 at minimum 6?
Reply text: -1

Inquiry: Is it the case that CC(NC(=O)[C@H](Cc1ccc([N+](=O)[O-])cc1)NC(=O)c1cccc2ccccc12)C(=O)NCc1ccccc1 (stereo partly specified) has pIC50 reaching or exceeding 6?
Reply text: 1

###

Measured IC50, listed per entry for reference.
TESTED_ON: C-C chemokine receptor type 3 (Homo sapiens)
Sequence (P51677 whole entry): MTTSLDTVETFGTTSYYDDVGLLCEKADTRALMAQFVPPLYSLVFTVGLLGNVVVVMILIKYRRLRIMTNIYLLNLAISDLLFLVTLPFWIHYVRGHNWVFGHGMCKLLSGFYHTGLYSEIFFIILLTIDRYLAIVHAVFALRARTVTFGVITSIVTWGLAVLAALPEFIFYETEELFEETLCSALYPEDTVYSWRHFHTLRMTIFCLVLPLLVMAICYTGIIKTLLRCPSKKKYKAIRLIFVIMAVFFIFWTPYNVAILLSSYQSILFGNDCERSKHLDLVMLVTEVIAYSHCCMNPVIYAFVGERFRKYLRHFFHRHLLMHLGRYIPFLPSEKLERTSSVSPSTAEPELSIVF
TEST_DETAILS: Antagonist activity against C-C chemokine receptor type 3
The response must be a number in nM with no trailing unit.

In the examples that follow, each entry is paired with its recorded IC50.
- C=C(NC(=O)[C@H](Cc1ccc([N+](=O)[O-])cc1)NC(=O)c1cccc2ccccc12)C(=O)OCC: 350
- O=C(N[C@@H](Cc1ccc([N+](=O)[O-])cc1)c1nccs1)c1cccc2ccccc12: 32000
- CCOC(=O)c1coc([C@H](Cc2ccc([N+](=O)[O-])cc2)NC(=O)c2cccc3ccccc23)n1: 500

Moving on to the next compound.
Inquiry: Query (compound): CC(NC(=O)[C@H](Cc1ccc([N+](=O)[O-])cc1)NC(=O)c1cccc2ccccc12)C(=O)N1CCCC1 (stereo partly specified) ; field requested: IC50
Reply text: 1130

###

TESTED_ON: C-C chemokine receptor type 3 (Homo sapiens)
TEST_DETAILS: Antagonist activity against C-C chemokine receptor type 3
ASSAY_ENDPOINT: pIC50
The scale used: pIC50 is minus the common logarithm of the concentration in molar units.

• C[C@H](NC(=O)[C@H](Cc1cscn1)NC(=O)c1cccc2ccccc12)C(=O)Nc1ccc(Cl)cc1 = 6.10

Inquiry: Given the compound CCNC(=O)C(C)NC(=O)[C@H](Cc1ccc([N+](=O)[O-])cc1)NC(=O)c1cccc2ccccc12 (stereo partly drawn) , what is its reported pIC50?
Reply text: 6.18

Inquiry: Look up pIC50 for this compound: CCOC(=O)c1csc([C@H](Cc2ccc([N+](=O)[O-])cc2)NC(=O)c2cccc3ccccc23)n1
Reply text: 6.18

###

TESTED_ON: C-C chemokine receptor type 3 (Homo sapiens, UniProt P51677)
TEST_DETAILS: Antagonist activity against C-C chemokine receptor type 3
Each entry below carries its recorded IC50.
Report the value in nM with no unit label.

Use these answered entries as a reference point.
* O=C(N[C@@H](Cc1ccc([N+](=O)[O-])cc1)c1cnco1)c1cccc2ccccc12 (racemic) | 22500
* C[C@@H](C(=O)Nc1ccccc1)N(C)C(=O)[C@H](Cc1ccc([N+](=O)[O-])cc1)NC(=O)c1cccc2ccccc12 | 65

Inquiry: C-C chemokine receptor type 3 (Homo sapiens, UniProt P51677) / IC50 / C[C@H](NC(=O)[C@H](Cc1ccncc1)NC(=O)c1cccc2ccccc12)C(=O)Nc1ccc(-c2ccccc2)cc1 : value?
Reply text: 600

Inquiry: For the record C[C@H](NC(=O)[C@H](Cc1ccc([N+](=O)[O-])cc1)NC(=O)c1cccc2ccccc12)C(=O)Nc1ccccc1 , what value of IC50 is listed for C-C chemokine receptor type 3 (Homo sapiens, UniProt P51677)?
Reply text: 190

Inquiry: Which IC50 is reported with C-C chemokine receptor type 3 (Homo sapiens, UniProt P51677) for this entry: C[C@H](NC(=O)[C@H](Cc1ccc(Cl)cc1)NC(=O)c1cccc2ccccc12)C(=O)Nc1cccnc1 ?
Reply text: 27
